Tested on: MOLM-13 cells
Assay: Cell viability assay (CellTiter-Glo) in MOLM-13 cells, alone or with gilteritinib
Type: cell-based
Conditions: Homo sapiens, MOLM-13, 72 h, MOLM-13 cells, compound alone (without gilteritinib), three days, CellTiter-Glo; read-out: MOLM-13 IC50
Assignment: determine reported IC50 for the given compounds.

Q: So what does the record say about IC50 for CN1CC(Nc2cccc(-c3cn([C@H]4C[C@H](CNc5ccc6c(c5)C(=O)N(C5CCC(=O)NC5=O)C6=O)C4)nc3C3CC3)n2)C1 (stereo partly drawn) [GS-292] ?
A: > 1 µM

Q: What do we get for O=C1CCC(N2C(=O)c3ccc(NCCC[C@H]4C[C@H](n5cc(-c6cnc7ccccc7n6)c(C(F)(F)F)n5)C4)cc3C2=O)C(=O)N1 (stereo partly drawn) [GS-400] ?
A: 0.1 to 1 µM

Q: What do we get for Cc1nn([C@H]2C[C@@H](CCCNc3ccc4c(c3)C(=O)N(C3CCC(=O)NC3=O)C4=O)C2)cc1-c1cnc2ccc(N3CCOCC3)cc2n1 (stereo partly drawn) [GS-221] ?
A: < 0.01 µM

Q: What do we get for O=C1CCC(N2C(=O)c3ccc(NC4CCC(CCCn5cc(-c6cnc7ccccc7n6)cn5)CC4)cc3C2=O)C(=O)N1 (stereo not drawn) [GS-184] ?
A: > 1 µM

Q: What do we get for O=C1CCC(N2C(=O)c3ccc(NCCCCC(=O)N4C5CCC4CC(n4cc(-c6cnc7ccccc7n6)cn4)C5)cc3C2=O)C(=O)N1 (stereo not drawn) [GS-136] ?
A: > 1 µM

Q: What do we get for Cc1cccc(-c2cn([C@H]3C[C@H](CNc4ccc5c(c4)C(=O)N(C4CCC(=O)NC4=O)C5=O)C3)nc2C)n1 (stereo partly drawn) [GS-449] ?
A: > 1 µM

---

System: MOLM-13 cells
Assay: Cell viability assay (CellTiter-Glo) in MOLM-13 cells, alone or with gilteritinib
Type: cell-based
Conditions: Homo sapiens, MOLM-13, 72 h, MOLM-13 cells, with gilteritinib 20 nM, three days, CellTiter-Glo; read-out: MOLM-13 IC50 gilteritinib
Measurement Label: IC50

Q: So what does the record say about IC50 for Cc1c(-c2cnc3ccccc3n2)cnn1[C@H]1C[C@@H](CCCNc2ccc3c(c2)C(=O)N(C2CCC(=O)NC2=O)C3=O)C1 (some centres unmarked) ?
A: 10 to 100 nM

Q: What do we get for Cc1cccnc1-c1cn([C@H]2C[C@H](CNc3ccc4c(c3)C(=O)N(C3CCC(=O)NC3=O)C4=O)C2)nc1C1CC1 (some centres unmarked) ?
A: < 10 nM

Q: What do we get for O=C(CN1CCC(N2CCN(c3ccccn3)CC2)C1)NCc1ccc2c(c1)C(=O)N(C1CCC(=O)NC1=O)C2=O (centres unmarked) ?
A: > 1000 nM

Q: What do we get for O=C(Cc1ccc(N2CCC(n3cc(-c4cnc5ccccc5n4)cn3)CC2)cc1)NCc1ccc2c(c1)CN(C1CCC(=O)NC1=O)C2=O (centres unmarked) ?
A: < 10 nM

Q: What do we get for O=C1CCC(N2C(=O)c3ccc(NC[C@H]4C[C@H](n5cc(-c6ncccc6F)c(C6CC6)n5)C4)cc3C2=O)C(=O)N1 (some centres unmarked) ?
A: 10 to 100 nM

Q: What do we get for O=C1CCC(N2C(=O)c3ccc(NCCCCCNc4ncc(-c5cnc6ccccc6n5)s4)cc3C2=O)C(=O)N1 (centres unmarked) ?
A: 100 to 1000 nM

Q: What do we get for CN1CCC(c2cccc3ncc(-c4cnn(C5CCN(C(=O)CCCCCNc6ccc7c(c6)C(=O)N(C6CCC(=O)NC6=O)C7=O)CC5)c4)nc23)CC1 (centres unmarked) ?
A: < 10 nM

Q: What do we get for O=C1CCC(N2C(=O)c3ccc(NCCC[C@H]4C[C@H](n5cc(-c6cnc7ccc(C8CCOCC8)cc7n6)cn5)C4)cc3C2=O)C(=O)N1 (some centres unmarked) ?
A: < 10 nM

Q: What do we get for O=C1CCC(N2C(=O)c3ccc(NC[C@H]4C[C@H](n5cc(-c6nccc7cccnc67)c(C6CC6)n5)C4)cc3C2=O)C(=O)N1 (some centres unmarked) ?
A: < 10 nM

Q: What do we get for O=C1CCC(N2C(=O)c3ccc(NCC4CC(C(=O)N5CCC(n6cc(-c7cnc8ccccc8n7)cn6)CC5)C4)cc3C2=O)C(=O)N1 (centres unmarked) ?
A: 10 to 100 nM

Q: What do we get for C[C@@H]1CC(n2cc(-c3cnc4ccccc4n3)cn2)C[C@H](C)N1C(=O)CCCCNc1ccc2c(c1)C(=O)N(C1CCC(=O)NC1=O)C2=O (some centres unmarked) ?
A: > 1000 nM

Q: What do we get for N#Cc1cccc2ncc(-c3cnn([C@H]4C[C@H](CCCNc5ccc6c(c5)C(=O)N(C5CCC(=O)NC5=O)C6=O)C4)c3)nc12 (some centres unmarked) ?
A: 10 to 100 nM

Q: What do we get for O=C1CCC(N2C(=O)c3ccc(NCCC[C@H]4C[C@@H](n5cc(-c6cnc7ccc(C8CCOCC8)cc7n6)cn5)C4)cc3C2=O)C(=O)N1 (some centres unmarked) ?
A: < 10 nM

Q: What do we get for CN1C2CCC1CN(c1ccc3ncc(-c4cnn([C@H]5C[C@H](CCCNc6ccc7c(c6)C(=O)N(C6CCC(=O)NC6=O)C7=O)C5)c4)nc3c1)C2 (some centres unmarked) ?
A: < 10 nM

Q: What do we get for O=C1CCC(N2Cc3cc(NCCCC4CC(n5cc(-c6cnc7ccccc7n6)cn5)C4)ccc3C2=O)C(=O)N1 (centres unmarked) ?
A: > 1000 nM

Q: What do we get for COc1ccnc(-c2cn([C@H]3C[C@H](CNc4ccc5c(c4)C(=O)N(C4CCC(=O)NC4=O)C5=O)C3)nc2C2CC2)c1 (some centres unmarked) ?
A: < 10 nM

Q: What do we get for O=C1CCC(N2Cc3ccc(CCCC(=O)N4CCC(n5cc(-c6ccc7ccccc7n6)cn5)CC4)cc3C2=O)C(=O)N1 (centres unmarked) ?
A: > 1000 nM

Q: What do we get for Cc1c(-c2cnc3ccccc3n2)cnn1[C@H]1C[C@H](CCCNc2ccc3c(c2)C(=O)N(C2CCC(=O)NC2=O)C3=O)C1 (some centres unmarked) ?
A: 10 to 100 nM

Q: What do we get for O=C1CCC(N2C(=O)c3ccc(NCCCCCCN4CCC(C5CCC(O)CC5)CC4)cc3C2=O)C(=O)N1 (centres unmarked) ?
A: 100 to 1000 nM

Q: What do we get for O=C1CCC(N2Cc3c(NC4CCCC(Nc5ccnc(N6CCC(n7cc(-c8cnc9ccccc9n8)cn7)CC6)n5)C4)cccc3C2=O)C(=O)N1 (centres unmarked) ?
A: 100 to 1000 nM

Q: What do we get for O=C1CCC(N2Cc3cc(NCCCCCCn4cc(-c5cnc6ccccc6n5)cn4)ccc3C2=O)C(=O)N1 (centres unmarked) ?
A: 10 to 100 nM

Q: What do we get for O=C1CCC(N2C(=O)c3ccc(NCCC[C@H]4C[C@H](n5cc(-c6ccnc(N7CCOCC7)n6)cn5)C4)cc3C2=O)C(=O)N1 (some centres unmarked) ?
A: 10 to 100 nM

Q: What do we get for CCc1cccc(-c2cn([C@H]3C[C@H](CNc4ccc5c(c4)C(=O)N(C4CCC(=O)NC4=O)C5=O)C3)nc2C2CC2)n1 (some centres unmarked) ?
A: 10 to 100 nM

Q: What do we get for CC(C)(CCCNc1ccc2c(c1)C(=O)N(C1CCC(=O)NC1=O)C2=O)C(=O)N1CCC(n2cc(-c3cnc4ccccc4n3)cn2)CC1 (centres unmarked) ?
A: > 1000 nM

Q: What do we get for CNc1cccc(-c2cnn([C@H]3C[C@H](CCCNc4ccc5c(c4)C(=O)N(C4CCC(=O)NC4=O)C5=O)C3)c2)n1 (some centres unmarked) ?
A: 10 to 100 nM

Q: What do we get for O=C1CCC(N2C(=O)c3ccc(NCCC4CCC(n5cc(-c6cnc7ccccc7n6)cn5)CC4)cc3C2=O)C(=O)N1 (centres unmarked) ?
A: 100 to 1000 nM

---

Test system: MV4;11 cells
Experiment: Cell viability assay (CellTiter-Glo) in MV4;11 cells, alone or with gilteritinib
Assay type: cell-based
Conditions: Homo sapiens, MV4-11, 72 h, MV4;11 cells, compound with gilteritinib 10 nM, three days, CellTiter-Glo; read-out: MV4; 11 IC50 gilteritinib
pIC50: −log10 of the molar value.
Assignment: determine reported pIC50 for the given compounds.

Q: So what does the record say about pIC50 for CN1CCN(c2ccc3ncc(-c4cnn(CCCCCCNc5ccc6c(c5)C(=O)N(C5CCC(=O)NC5=O)C6=O)c4)nc3c2)CC1 (stereo not shown) ?
A: > 8.00

Q: What do we get for O=C1CCC(N2C(=O)c3ccc(NCCC[C@H]4C[C@H](n5cc(-c6nccc7ccncc67)c(C6CC6)n5)C4)cc3C2=O)C(=O)N1 (stereo partly shown) ?
A: > 8.00

Q: What do we get for O=C1CCC(N2C(=O)c3ccc(NC[C@H]4C[C@H](n5cc(-c6cccc(Cl)c6)c(C6CC6)n5)C4)cc3C2=O)C(=O)N1 (stereo partly shown) ?
A: 7.00 to 8.00

Q: What do we get for O=C1CCC(N2C(=O)c3ccc(NC[C@H]4C[C@H](n5cc(-c6cccc(C7CNC7)n6)c(C6CC6)n5)C4)cc3C2=O)C(=O)N1 (stereo partly shown) ?
A: < 6.00

Q: What do we get for O=C1CCC(N2C(=O)c3ccc(NCCCC4CC(n5cc(N6CCOCC6)cn5)C4)cc3C2=O)C(=O)N1 (stereo not shown) ?
A: < 6.00

Q: What do we get for COc1cccnc1-c1cnn([C@H]2C[C@H](CCCNc3ccc4c(c3)C(=O)N(C3CCC(=O)NC3=O)C4=O)C2)c1 (stereo partly shown) ?
A: > 8.00

Q: What do we get for O=C1CCC(N2C(=O)c3ccc(NCCCCCC(=O)N4CCC(n5cc(-c6cnc7ccc(N8CCOCC8)cc7n6)cn5)CC4)cc3C2=O)C(=O)N1 (stereo not shown) ?
A: > 8.00

Values compiled from patent US20240050428A1.
